The origin of these recorded values is patent US8735414B2.

# melting point values compiled below
quantity name: melting point

{"smiles representation": "CC(C)NS(=O)(=O)c1ccc(-c2c(C#N)c3ccc(OC(F)F)cc3n2C2CCC2)nc1", "result": "158 to 159 °C"}
{"smiles representation": "COc1ccc2c(C#N)c(-c3ccc(S(=O)(=O)N[C@@H](C)C(F)(F)F)cn3)n(C3CCCCC3)c2c1", "result": "197 to 204 °C"}
{"smiles representation": "C[C@@H](NS(=O)(=O)c1ccc(-c2c(C#N)c3cc(C(F)F)ccc3n2C2CCCC2)nc1)C(F)(F)F", "result": "186 to 188 °C"}
{"smiles representation": "CCCS(=O)(=O)Nc1ccc(-c2c(C#N)c3ccc(Oc4ncccc4C#N)cc3n2C2CCC2)nc1", "result": "199 to 201 °C"}
{"smiles representation": "CC(C)(NS(=O)(=O)c1ccc(-c2c(C#N)c3cc(F)c(OC(F)F)cc3n2C2CCC2)nc1)C(F)(F)F", "result": "162 to 165 °C"}
{"smiles representation": "CC(C)(C)S(=O)(=O)Nc1ccc(-c2c(C(N)=O)c3c(F)cc(C4CC4)cc3n2C2CCCCC2)nc1", "result": "275 to 285 °C (dec.)"}
{"smiles representation": "C[C@H](NS(=O)(=O)c1cnc(-c2c(C#N)c3ccc(C4CC4)cc3n2C2CCCC2)nc1)C(F)(F)F", "result": "238 to 239 °C"}
{"smiles representation": "COc1cc2c(cc1F)c(C#N)c(-c1ncc(S(=O)(=O)NC(CF)CF)cn1)n2C1CCC1", "result": "245 to 247 °C"}
{"smiles representation": "Cc1cc2c(cc1F)c(C(=O)O)c(-c1ccc(S(=O)(=O)NC(C)(C)C)cn1)n2C1CCCC1", "result": "238 to 240 °C"}
{"smiles representation": "C[C@@H](NS(=O)(=O)c1ccc(-c2c(C#N)c3ccc(Cl)cc3n2C2CCC2)nc1)C(F)(F)F", "result": "202 to 206 °C"}
{"smiles representation": "Cc1ccc2c(c1)c(C#N)c(-c1ncc(S(=O)(=O)N[C@@H](C)C(F)(F)F)cn1)n2C1CCCCC1", "result": "218 to 223 °C"}
{"smiles representation": "Cc1c(F)cc2c(C#N)c(-c3ccc(S(=O)(=O)NC(C)(C)C(F)(F)F)cn3)n(C3CCC3)c2c1F", "result": "180 to 187 °C"}
{"smiles representation": "COc1ccc2c(c1)c(C#N)c(-c1ccc(S(=O)(=O)NC(CF)CF)cn1)n2C1CCC1", "result": "149 to 150 °C"}
{"smiles representation": "CC(C)NS(=O)(=O)c1cnc(-c2c(C(N)=O)c3ccc(OC(F)(F)F)cc3n2C2CCC2)nc1", "result": "222 to 223 °C"}
{"smiles representation": "Cc1ccnc(-n2c(-c3ccc(S(=O)(=O)N[C@@H](C)C(F)(F)F)cn3)c(C(N)=O)c3cc(F)c(C)cc32)n1", "result": "205 to 210 °C"}
{"smiles representation": "CCc1cc2c(cc1F)c(C(N)=O)c(-c1ccc(S(=O)(=O)N[C@@H](C)C(F)(F)F)cn1)n2-c1ccc(C)cc1", "result": "228 to 233 °C"}
{"smiles representation": "N#Cc1c(-c2ccc(S(=O)(=O)NC(CF)CF)cn2)n(-c2ccncc2)c2ccc(F)cc12", "result": "199 to 203 °C"}
{"smiles representation": "CC(C)(C)S(=O)(=O)Nc1ccc(-c2c(C(N)=O)c3cc(F)c(OCF)cc3n2C2CCCCC2)cn1", "result": "274 to 276 °C"}
{"smiles representation": "Cc1ccc2c(c1)c(C#N)c(-c1ncc(S(=O)(=O)NC(C)C)cn1)n2C(C)C", "result": "175 to 177 °C"}
{"smiles representation": "C[C@@H](NS(=O)(=O)c1cnc(-c2c(C#N)c3ccc(C4CC4)cc3n2C2CCC2)nc1)C(F)(F)F", "result": "211 to 212 °C"}
{"smiles representation": "CC(C)NS(=O)(=O)c1cnc(-c2c(C#N)c3ccc(CC(F)F)cc3n2C2CCCC2)nc1", "result": "204 to 218 °C"}
{"smiles representation": "Cc1ccc2c(C#N)c(-c3ccc(S(=O)(=O)NC(CF)CF)cn3)n(CC3CC3)c2c1", "result": "175 to 182 °C"}
{"smiles representation": "C[C@H](NS(=O)(=O)c1ccc(-c2c(C#N)c3ccc(C4CC4)cc3n2-c2ccccn2)nc1)C(F)(F)F", "result": "185 to 189 °C"}
{"smiles representation": "C[C@H](NS(=O)(=O)c1ccc(-c2c(C#N)c3cc(F)c(OC(F)F)cc3n2-c2ccccn2)nc1)C(F)(F)F", "result": "161 to 163 °C"}
{"smiles representation": "CC(C)(C)S(=O)(=O)Nc1ccc(-c2c(C#N)c3cc(F)c(OC(F)F)cc3n2C2CCCCC2)cn1", "result": "278 to 280 °C"}
{"smiles representation": "CC(C)n1c(-c2ccc(S(=O)(=O)NC(CF)CF)cn2)c(C#N)c2ccc(OC(F)(F)F)cc21", "result": "116 to 117 °C"}
{"smiles representation": "CCc1cc2c(cc1F)c(C#N)c(-c1ccc(S(=O)(=O)N[C@@H](C)C(F)(F)F)cn1)n2-c1cccnc1", "result": "205 to 212 °C"}
{"smiles representation": "COc1cc2c(cc1F)c(C#N)c(-c1ccc(S(=O)(=O)NC(CF)CF)cn1)n2CC1CC1", "result": "196 to 199 °C"}
{"smiles representation": "C[C@H](NS(=O)(=O)c1ccc(-c2c(C(N)=O)c3cc(F)ccc3n2C2CCC2)nc1)C(F)(F)F", "result": "224 to 227 °C"}
